Cited source for all entries: patent US20240270821A1

Tested on: Intestinal organoid from Göttingen minipig jejunum tissue, 2D monolayer
protocol_notes: Cell based in vitro permeability (Papp) assay
Type: in vitro ADME
Starred links: 1 amine or outer side, 2 acyl side, 3 side chain; linkers in the order of their positions; H or OH if unused. Non-standard residues stand in square brackets, D forms with d. Groups on a side chain read outwards from the residue. No end group written: not given here. *: point of attachment. C18 diacid = O=C(O)CCCCCCCCCCCCCCCCC(=O)*; γGlu = O=C(O)[C@H](CCC(=O)[*:2])N[*:1]; αMeL = CC(C)C[C@](C)(N)C(=O)O; Orn = NCCC[C@H](N)C(=O)O; AEEA = NCCOCCOCC(=O)O; Aib = CC(C)(N)C(=O)O
Use 0.1 as the dividing line for Relative Papp (Compared to internal standard), with the line itself on the yes side and lower values as no.

| substance | class_name |
| --- | --- |
| H-Y[Aib]QGTFTSDFS[Orn][αMeL]LDKK([AEEA-AEEA-γGlu-C18 diacid])AQ[Aib]AFIEYLLE[Aib]GHSSGAPPPSGT-NH2 [Example 182] | yes |
| H-Y[Aib]QGTFTSDFS[Orn][αMeL]LDKK([AEEA-AEEA-γGlu-C18 diacid])AQ[Aib]AFIEWLLEGGHSSGAPPPSGE-NH2 [Example 169] | yes |
| H-Y[Aib]QGTFTSDFS[Orn][αMeL]LDKK([AEEA-γGlu-C18 diacid])AQ[Aib]AFIEWLLEGGPSSGAPPPTGS-NH2 [Example 250] | yes |
| Y[Aib]QGTFTSDFS[Orn][αMeL]LDKK([AEEA-γGlu-C18 diacid])AQ[Aib]AFIEYLLE[dA]GPSSGEPPPSGE-NH2 [Example 135] | no |
| H-Y[Aib]QGTFTSDFS[Orn][αMeL]LDKK([AEEA-γGlu-C18 diacid])AQ[Aib]AFIEYLLE[Aib]GPSS[Aib]APPPSGS-NH2 [Example 238] | no |

----------
system_name: hGIPR (Homo sapiens)
Sequence (P48546 22-466): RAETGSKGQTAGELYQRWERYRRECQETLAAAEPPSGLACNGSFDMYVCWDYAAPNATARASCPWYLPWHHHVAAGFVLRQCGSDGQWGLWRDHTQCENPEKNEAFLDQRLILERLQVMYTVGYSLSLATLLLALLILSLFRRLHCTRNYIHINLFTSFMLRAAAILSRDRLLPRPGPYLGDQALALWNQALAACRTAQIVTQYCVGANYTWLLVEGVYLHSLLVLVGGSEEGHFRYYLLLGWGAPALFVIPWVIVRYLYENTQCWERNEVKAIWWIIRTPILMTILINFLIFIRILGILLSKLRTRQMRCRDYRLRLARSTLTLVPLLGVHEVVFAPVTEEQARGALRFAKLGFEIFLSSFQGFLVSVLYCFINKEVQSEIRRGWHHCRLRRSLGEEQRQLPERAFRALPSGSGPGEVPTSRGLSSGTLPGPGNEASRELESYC
protocol_notes: Functional cAMP activation in the presence of 0.1% casein (no HSA);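 also: intracellular cAMP rise after 30 min at 37 °C read by HTRF against a standard curve, scaled between buffer alone (0%) and top control ligand concentration (100%), four-parameter fit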
Type: cell-based
test_settings: read-out: Relative cAMP EC50, hGIPR
Starred links: 1 amine or outer side, 2 acyl side, 3 side chain; linkers in the order of their positions; H or OH if unused. Non-standard residues stand in square brackets, D forms with d. Groups on a side chain read outwards from the residue. No end group written: not given here. *: point of attachment. C18 diacid = O=C(O)CCCCCCCCCCCCCCCCC(=O)*; αMePhe(2-F) = C[C@](N)(Cc1ccccc1F)C(=O)O; γGlu = O=C(O)[C@H](CCC(=O)[*:2])N[*:1]; αMe4Pal = C[C@](N)(Cc1ccncc1)C(=O)O; αMeY = C[C@](N)(Cc1ccc(O)cc1)C(=O)O; 4Pal = N[C@@H](Cc1ccncc1)C(=O)O; αMeL = CC(C)C[C@](C)(N)C(=O)O; αMeS = C[C@](N)(CO)C(=O)O; Orn = NCCC[C@H](N)C(=O)O; AEEA = NCCOCCOCC(=O)O; Aib = CC(C)(N)C(=O)O
property: EC50

| substance | property | result |
| --- | --- | --- |
| H-Y[Aib]QGT[αMePhe(2-F)]TSDYSILLDKK([AEEA-γGlu-C18 diacid])AQ[Aib]AFIE[4Pal]LEEGGPSSGAPPPSEG-NH2 [Example 411] | EC50 | 58 pM |
| H-Y[Aib]QGT[αMePhe(2-F)]TSD[4Pal]SILLDKK([γGlu-γGlu-C18 diacid])AQ[Aib]AFIE[αMeY]LEEGGPSSGAPPPSGEGE-NH2 [Example 667] | EC50 | 21.7 pM |
| H-Y[Aib]QGT[αMePhe(2-F)]TSD[4Pal][αMeS]I[αMeL]LD[Orn]K([AEEA-γGlu-C18 diacid])AA[Aib]EFI[dE][αMeY]LIEGGPSSGAPPPSGTEE-NH2 [Example 725] | EC50 | 12.6 pM |
| H-Y[Aib]QGT[αMePhe(2-F)]TSD[4Pal]SI[αMeL]LD[Orn]K([AEEA-γGlu-C18 diacid])AQ[αMe4Pal][Orn]FI[dE][αMeY]LIEGGPSSGDPPPEGTE-NH2 [Example 731] | EC50 | 11.7 pM |
| H-Y[Aib]QGT[αMePhe(2-F)]TSD[4Pal][αMeS]I[αMeL]LD[Orn]K([γGlu-γGlu-C18 diacid])AQ[αMe4Pal]EFI[dE][αMeY]LVEGGPSSGEPPPSGTGE-NH2 [Example 738] | EC50 | 9.91 pM |
| Y[Aib]QGT[αMePhe(2-F)]TSD[4Pal][αMeS]I[αMeL]LD[Orn]K([γGlu-γGlu-C18 diacid])AQ[Aib][Orn]FI[dE]YLIEGGPSSGEPPPSGTE-NH2 [Example 521] | EC50 | 16.4 pM |
| Y[Aib]QGT[αMePhe(2-F)]TSD[4Pal]SI[αMeL]LD[Orn]K([AEEA-γGlu-C18 diacid])AQ[αMe4Pal]EFI[dE][αMeY]LIEGGPSSGAPPPSGE-NH2 [Example 614] | EC50 | 6.5 pM |
| H-Y[Aib]QGT[αMePhe(2-F)]TSD[4Pal][αMeS]ILLD[Orn]K([γGlu-γGlu-C18 diacid])AQ[Aib][Orn]FI[dE][αMeY]LQEGGPSSGEPPPSGAEE-NH2 [Example 575] | EC50 | 321 pM |
| H-Y[Aib]QGT[αMePhe(2-F)]TSDYSI[αMeL]LD[Orn]K([AEEA-γGlu-C18 diacid])AQ[Aib]AFI[dE]YLLEGGPSSGAPPPSEG-NH2 [Example 404] | EC50 | 10.2 pM |
| H-Y[Aib]QGT[αMePhe(2-F)]TSD[4Pal][αMeS]I[αMeL]LD[Orn]K([γGlu-γGlu-C18 diacid])AQ[αMe4Pal]EFI[dE][αMeY]LIEGGPSSGAPPPSGSE-NH2 [Example 717] | EC50 | 7.21 pM |
